Assay: Hepatic microsomal stability, HLM
Assay type: in vitro ADME, human
Conditions: In vitro human liver microsomal stability
property: t_half (min)
Provide only the numeric value, understood in min.

Name the reported t_half value associated with the compound COCCNC(=O)c1c[nH]c2ncnc(N[C@H](c3ccc4c(c3)S(=O)(=O)CCC4)C(C)C)c12 (racemic)
3.1

Name the reported t_half value associated with the compound CC(C)[C@H](Nc1ncnc2[nH]c(-c3cnn(C)c3C#N)cc12)c1ccc2c(n1)OCCO2
100.0

Name the reported t_half value associated with the compound CC(C)[C@@H](Nc1ncnc2[nH]c(C(=O)N[C@H]3CCN(C)C3)cc12)c1ccc2c(c1)S(=O)(=O)CCC2 (single isomer, unassigned)
64.0

Name the reported t_half value associated with the compound COc1ccc(C(NC(=O)c2ncnc3[nH]ccc23)C(C)c2nnn[nH]2)cc1 (mixture of isomers)
798.7
